Hello, the source for this data is patent US10947242B2, in case you need it.

target: Human recombinant PDE2A (hPDE2A) (Homo sapiens); construct: His tag (inferred from metal chelate purification); made in house; host or cells: Sf9 insect cells (baculovirus); experiment: In vitro assay PDE2A (SPA, 3H-cGMP hydrolysis); assay type: biochemical; details: read-out: hPDE2A Emax
Structures can show the parent of a compound that is named as a salt.
PROPERTY: Emax (%)
API: value field is a number in %; no unit string.

get_value(item= C[C@@H]1CCN(C(=O)c2cccc(C(F)(F)F)c2F)C[C@H]1c1cc(C(F)F)nc2ncnn12 , readout=Emax) returns 101

Input CCCC[C@@H]1CCN(C(=O)c2cc(C)nc(C)c2)C[C@H]1c1cc(C(F)F)nc2ncnn12 (single isomer, unassigned) [Compound 45] . Output Emax: 37

Looking up C[C@@H]1CCN(C(=O)c2ccn(C)n2)C[C@H]1c1cc(C(F)F)nc2ncnn12 , I found its Emax recorded as 99

Just so you know, measured Emax for Cc1ccc2cc(C(=O)N3[C@H]4CC[C@H](c5cc(C(F)F)nc6ncnn56)[C@@H]3CC4)c(C)nc2c1 came out at 99

Per the records, this compound ( C[C@@H]1CCN(C(=O)c2cc(F)cc(C#N)c2)C[C@H]1c1cc(C(F)F)nc2ncnn12 ) has Emax equal to 100

// sample Cc1cc([C@@H]2CN(C(=O)c3ccc4ncsc4c3)CC[C@H]2C)n2ncnc2n1 , its Emax was 101

Data point: Cc1ccc(F)c(C(=O)N2CC[C@@H](C)[C@@H](c3cc(C(F)F)nc4ncnn34)C2)n1 ; Emax = 98

# Emax of Cc1nc(C)c(C(=O)N2CC[C@@H](C)[C@H](c3cc(C(F)F)nc4ncnn34)C2)s1 = 100

Documented Emax of Cc1cc(C(=O)N2[C@H]3CC[C@H](c4cc(C(F)F)nc5ncnn45)[C@@H]2CC3)cc(C(F)F)n1 : 99

Emax for O=C(c1cnc2c(Cl)cccc2c1)N1[C@H]2CC[C@H](c3cc(C(F)F)nc4ncnn34)[C@@H]1CC2 is 100

Input COc1cc(C(=O)N2CC[C@@H](C)[C@H](c3cc(C)nc4ncnn34)C2)c(F)cn1 . Output Emax: 99

Value of Emax reported for the compound Cc1cc(C(=O)N2CC[C@@H](C)[C@H](c3cc(C)nc4ncnn34)C2)cc(C2CC2)n1 is 101

Looking up Cc1cc([C@H]2CN(C(=O)c3ccc4nccn4c3)CC[C@@H]2C)n2ncnc2n1 , I found its Emax recorded as 98

The compound listed as Cc1cc(C)cc(C(=O)N2[C@H]3CC[C@H](c4cc(C(F)F)nc5ncnn45)[C@@H]2CC3)c1 shows Emax equal to 101

Entry under test: Cc1cc([C@@H]2CN(C(=O)c3ccc(C(C)(C)C)o3)CC[C@H]2C)n2ncnc2n1 . Its Emax was 101

Kindly note the recorded Emax for Cc1csc(C(=O)N2CCC[C@](C)(c3cc(C(F)F)nc4ncnn34)C2)c1 (single isomer, unassigned) , which is 62

Lab book: Emax of Cc1cc(C(=O)N2CC[C@H](C)[C@@H](c3cc(C(F)F)nc4ncnn34)C2)cc(C)n1 [220 (•HCl)] noted as 54

For reference, reported Emax for Cc1cc(C(=O)N2CC[C@@H](C)[C@H](c3cc(C(F)F)nc4ncnn34)C2)cc(Cl)c1F stands at 101

Lookup result for Cc1c(C(=O)N2[C@H]3CC[C@@H]2[C@H](c2cc(C(F)F)nc4ncnn24)CC3)oc2ccccc12 ; measured Emax: 100

GET /value?item= C[C@@H]1CCN(C(=O)c2cccnc2N)C[C@H]1c1cc(C(F)F)nc2ncnn12 &field=Emax returns 100

C[C@@H]1CCN(C(=O)c2cccc3ocnc23)C[C@H]1c1cc(C(F)F)nc2ncnn12 yielded Emax of 99

The value of Emax measured for the compound COc1c(C)cc(C(=O)N2[C@H]3CC[C@H](c4cc(C(F)F)nc5ncnn45)[C@@H]2CC3)cc1C turned out to be 100

Looking up CC(C)Oc1cc(C(=O)N2CC[C@@H](C)[C@H](c3cc(C(F)F)nc4ncnn34)C2)cc(C(C)C)c1 , I see its Emax listed as 100

Quick note, Emax for Cc1cc(C(=O)N2CC[C@@H](C)[C@H](c3cc(C)nc4ncnn34)C2)cc(OC(F)F)n1 landed at 100

For COc1ccc2nc(C(=O)N3CC[C@@H](C)[C@H](c4cc(C(F)F)nc5ncnn45)C3)sc2c1 the compound record lists Emax as 99

Entry Cc1cc([C@H]2CN(C(=O)c3ccc(C)c(C)n3)CC[C@@H]2C)n2ncnc2n1 , Emax reported as 64

Record C[C@@H]1CCN(C(=O)c2cnc3ccccc3c2O)C[C@H]1c1cc(C(F)F)nc2ncnn12 . Reported Emax: 100

Field Emax (entry C[C@@H]1CCN(C(=O)c2ccc(Cl)c(OC(F)F)c2)C[C@H]1c1cc(C(F)F)nc2ncnn12 ) reads 99

// field: Emax; key: Cc1cc([C@@H]2CN(C(=O)c3cc(Cl)ncc3C)CC[C@H]2C)n2ncnc2n1 ; value = 100

According to the records, this compound Cc1ccc(C(=O)N2[C@H]3CC[C@H](c4cc(C(F)F)nc5ncnn45)[C@@H]2CC3)o1 displays Emax of 100

* * *

target: Human recombinant PDE2A (hPDE2A) (Homo sapiens, UniProt O00408); construct: His tag (inferred from metal chelate purification); made in house; host or cells: Sf9 insect cells (baculovirus); test: In vitro assay PDE2A (SPA, 3H-cGMP hydrolysis); format: biochemical; settings: human recombinant PDE2A; read-out: hPDE2A Emax
Sequence (O00408 whole entry): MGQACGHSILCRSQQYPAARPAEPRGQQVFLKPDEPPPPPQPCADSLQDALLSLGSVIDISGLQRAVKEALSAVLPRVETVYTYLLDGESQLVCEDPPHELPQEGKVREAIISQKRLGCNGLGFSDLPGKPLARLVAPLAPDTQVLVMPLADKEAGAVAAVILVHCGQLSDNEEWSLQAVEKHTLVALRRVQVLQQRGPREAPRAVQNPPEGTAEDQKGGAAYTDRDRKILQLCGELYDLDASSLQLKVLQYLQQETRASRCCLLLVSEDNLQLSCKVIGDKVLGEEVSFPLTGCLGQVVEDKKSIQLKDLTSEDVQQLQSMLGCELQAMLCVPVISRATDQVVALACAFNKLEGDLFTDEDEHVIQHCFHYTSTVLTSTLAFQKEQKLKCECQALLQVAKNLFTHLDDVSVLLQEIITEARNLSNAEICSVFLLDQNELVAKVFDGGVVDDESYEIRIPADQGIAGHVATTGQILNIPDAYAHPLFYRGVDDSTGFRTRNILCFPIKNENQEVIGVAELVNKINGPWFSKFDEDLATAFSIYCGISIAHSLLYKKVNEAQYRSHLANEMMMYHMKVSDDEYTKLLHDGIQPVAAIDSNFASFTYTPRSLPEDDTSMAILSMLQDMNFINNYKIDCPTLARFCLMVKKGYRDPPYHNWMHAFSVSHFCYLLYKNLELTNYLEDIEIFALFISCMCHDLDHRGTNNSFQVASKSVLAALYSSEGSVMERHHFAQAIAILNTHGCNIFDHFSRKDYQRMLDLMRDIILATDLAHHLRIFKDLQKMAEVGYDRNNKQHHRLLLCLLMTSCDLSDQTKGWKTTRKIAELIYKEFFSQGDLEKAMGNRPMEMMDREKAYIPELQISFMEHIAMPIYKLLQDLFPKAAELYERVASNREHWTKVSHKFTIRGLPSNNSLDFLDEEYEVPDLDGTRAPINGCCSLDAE
PROPERTY: Emax (%)
Numeric answer only, unit % assumed.

Quick note, Emax for C[C@@H]1CCN(C(=O)c2ncc[nH]2)C[C@H]1c1cc(C(F)F)nc2ncnn12 landed at 90

Documented Emax of Cc1cc([C@@H]2CN(C(=O)c3cc(Cl)ncc3C)CC[C@H]2C)n2ncnc2n1 : 100

The compound identified as CC(=O)N1CCc2cc(C(=O)N3CCC[C@@](C)(c4cc(C(F)F)nc5ncnn45)C3)ccc21 (single isomer, unassigned) registered its Emax at 48

Emax reported for this compound Cc1cc(C(=O)N2CC[C@@H](C)[C@H](c3cc(C(F)F)nc4ncnn34)C2)c(F)cn1 : 101

The recorded Emax for entry C[C@@H]1CCN(C(=O)c2ccc3ocnc3c2)C[C@H]1c1cc(C(F)F)nc2ncnn12 equals 100

Value of Emax reported for the compound Cc1cc(C(=O)N2CC[C@@H](C)[C@H](c3cc(C(F)F)nc4ncnn34)C2)nc(C)n1 is 100

Emax recorded for this compound, C[C@@H]1CCN(C(=O)c2ccc(Cl)c(C3CC3)c2)C[C@H]1c1cc(C(F)F)nc2ncnn12 , is 100

* * *

What IC50 was measured for each of the following?
biological target: Human recombinant PDE2A (hPDE2A) (Homo sapiens); construct: His tag (inferred from metal chelate purification); made in house; host or cells: Sf9 insect cells (baculovirus); assay: In vitro assay PDE2A (SPA, 3H-cGMP hydrolysis); format: biochemical; conditions: human recombinant PDE2A, 10 μM cGMP substrate; read-out: hPDE2A pIC50 (converted)
Lab book: enter the figure in nM, no units written.

Sure, the documented IC50 for C[C@@H]1CCN(C(=O)c2ccc(Cl)s2)C[C@H]1c1cc(C(F)F)nc2ncnn12 is 5.01

// recorded IC50 for C[C@@H]1CCN(C(=O)c2ccc(C3CC3)c(C3CC3)c2)C[C@H]1c1cc(C(F)F)nc2ncnn12 : 0.871

The value of IC50 measured for the compound Cc1csc(C(=O)N2CCC[C@](C)(c3cc(C(F)F)nc4ncnn34)C2)c1 (single isomer, unassigned) turned out to be 589

Summary for this compound, Cc1c(C(=O)N2CC[C@@H](C)[C@H](c3cc(C(F)F)nc4ncnn34)C2)sc2ccccc12 : IC50 is 1.74

Input C[C@@H]1CCN(C(=O)c2ccnc(C3CC3)c2F)C[C@H]1c1cc(C(F)F)nc2ncnn12 . Output IC50: 1.74

Query Cc1nc(C(=O)N2CC[C@H](C)[C@H](c3cc(C(F)F)nc4ncnn34)C2)ccc1F yields IC50 of 195

// IC50 value for C[C@@H]1CCN(C(=O)c2cc3ccc(C(F)(F)F)cc3[nH]2)C[C@H]1c1cc(C(F)F)nc2ncnn12 : 0.501

Entry under test: Cc1cc(C(=O)N2[C@H]3CC[C@H](c4cc(C(F)F)nc5ncnn45)[C@@H]2CC3)cc(C)n1 (racemic) [Compound 31] . Its IC50 was 2.51

Measured IC50, C[C@]1(c2cc(C(F)F)nc3ncnn23)CCCN(C(=O)c2ccc3nccn3c2)C1 (single isomer, unassigned) : 575

Please fill in: IC50 reported for C[C@@H]1CCN(C(=O)c2ccnc(Cl)c2)C[C@H]1c1cc(C(F)F)nc2ncnn12 = 1.15

Please fill in: IC50 reported for C[C@@H]1CCN(C(=O)c2cc3n(n2)CCO3)C[C@H]1c1cc(C(F)F)nc2ncnn12 = 93.3

For this compound ( COc1ccc2c(c1)cc(C(=O)N1CC[C@@H](C)[C@H](c3cc(C(F)F)nc4ncnn34)C1)n2C ), measured IC50 is 4.57

// IC50 value for C[C@@H]1CCN(C(=O)c2cnc(Br)s2)C[C@H]1c1cc(C(F)F)nc2ncnn12 : 25.1

The measured IC50 associated with Cc1cc(C(=O)N2CC[C@@H](C)[C@H](c3cc(C(F)F)nc4ncnn34)C2)on1 reads 41.7

In plain terms, Cc1cnoc1C(=O)N1CC[C@@H](C)[C@H](c2cc(C(F)F)nc3ncnn23)C1 has a documented IC50 of 72.4

The value of IC50 measured for the compound Cc1cc([C@@H]2CN(C(=O)c3nc4ccccc4o3)CC[C@H]2C)n2ncnc2n1 turned out to be 4.57

Summary for this compound, Cc1cc(C)nc(C(=O)N2CC[C@@H](C)[C@H](c3cc(C(F)F)nc4ncnn34)C2)c1 : IC50 is 28.2

# IC50 of C[C@@H]1CCN(C(=O)c2ccc(Cl)c(C3CC3)c2)C[C@H]1c1cc(C(F)F)nc2ncnn12 = 1.02

response.value for C[C@@H]1CCN(C(=O)c2ccc3ncsc3c2)C[C@@]1(F)c1cc(C(F)F)nc2ncnn12 (field: IC50) = 14.8

Noted for C[C@@H]1CCN(C(=O)c2ccncc2C(F)(F)F)C[C@H]1c1cc(C(F)F)nc2ncnn12 : its IC50 reads 191

Reported IC50 ( C[C@@H]1CCN(C(=O)c2cc(Cl)ncc2Cl)C[C@H]1c1cc(C(F)F)nc2ncnn12 ) = 5.01

// Cc1cc([C@@H]2CN(C(=O)c3ccn(C)c3)CC[C@H]2C)n2ncnc2n1 : IC50 value = 6.03

Measured IC50 of Cc1cc(C(=O)N2CC[C@@H](C)[C@H](c3cc(C(F)F)nc4ncnn34)C2)cc(C(C)C)n1 : 0.661

Entry Cc1nc(C(=O)N2CC[C@@H](C)[C@H](c3cc(C(F)F)nc4ncnn34)C2)c(C(F)(F)F)o1 — recorded IC50 = 74.1

Record C[C@@H]1CCN(C(=O)c2ccc(F)c(C(F)(F)F)c2)C[C@H]1c1cc(C(F)F)nc2ncnn12 . Reported IC50: 18.6

Quick note, IC50 for Cc1cc(C(=O)N2CC[C@@H](C)[C@H](c3cc(C(F)F)nc4ncnn34)C2)cc(C2CC2)n1 landed at 0.398

The reported IC50 of the compound COc1cc(C(=O)N2CC[C@@H](C)[C@H](c3cc(C(F)F)nc4ncnn34)C2)cc(Cl)n1 was 0.912

For C[C@@H]1CCN(C(=O)c2cocn2)C[C@H]1c1cc(C(F)F)nc2ncnn12 the compound record lists IC50 as 214

Record Cc1cc(C(=O)N2C3CCC2[C@@H](c2cc(C(F)F)nc4ncnn24)CC3)cc(C2CC2)n1 (stereo partly drawn) . Reported IC50: 0.955

In plain terms, C[C@@H]1CCN(C(=O)c2nccnc2Cl)C[C@H]1c1cc(C(F)F)nc2ncnn12 has a documented IC50 of 186
